- Protocol Description: gradient 5% acetonitrile 3 min, to 50% in 2 min, to 85% in 15 min, held 3 min, 100 µL/min
- Condition Details: column: Zorbax Extend-C18 2.1 x 50 mm; eluents: water / acetonitrile, 0.1% formic acid
Mark label 1 only when RP-LC retention time stays strictly below 800 s. Values equal to the cut-off are label 0.

[[record]]
compound = "Cc1cccc(NC(=O)N2CCCC2c2nc(-c3ccccc3)no2)c1C (stereo not drawn)"
category = "label 0"

[[record]]
compound = "O=C1CCCN1CCCNc1ccc2nnc(CCC(=O)N3CCN(c4ccccn4)CC3)n2n1"
category = "label 1"

[[record]]
compound = "CCc1cccc(NC(=O)Cn2nc3c(N(C)C4CCCCC4)nccn3c2=O)c1"
category = "label 0"

[[record]]
compound = "CC1CCN(C(=O)C2=CN(c3ccccc3)c3ccccc3S2(=O)=O)CC1"
category = "label 0"

[[record]]
compound = "Cc1sc(NC(=O)Cc2ccccc2)nc1-c1ccc2c(c1)N(C)C(=O)CO2"
category = "label 0"

[[record]]
compound = "CSc1ncccc1C(=O)N1CCCn2nc(-c3cccc(Cl)c3)cc2C1"
category = "label 0"


Task: Identify whether the compound COc1ccc(-c2cc3nn(CC(=O)N4CCCC(C)C4)c(=O)n3c(C)n2)cc1 (stereo not drawn) records RP-LC retention time below 800 s.
Result: label 0

Task: Strictly below 800 s in RP-LC retention time? O=C(NCCn1cnc(-c2ccccc2)cc1=O)c1ccc2nsnc2c1
Result: label 1

Task: Item CCCNC(=O)C1CCCN(c2nc(C)nc3onc(CC)c23)C1 (stereo not drawn) : RP-LC retention time beneath 800 s, strictly?
Result: label 1

====

- Protocol Description: gradient 5% acetonitrile 3 min, to 50% in 2 min, to 85% in 15 min, held 3 min, 100 µL/min
- Condition Details: column: Zorbax Extend-C18 2.1 x 50 mm; eluents: water / acetonitrile, 0.1% formic acid
Attribute Measured: RP-LC retention time (s)
Answer format: numeric, s implied, no suffix.

[[record]]
molecule = "Cn1cc(-c2ccc(Cl)cc2)cc1C(=O)NCc1ccco1"
attribute_measured = "RP-LC retention time"
meas_value = 1020

[[record]]
molecule = "CCCN(CC1CCOC1)S(=O)(=O)Cc1ccccc1F (stereo not given)"
attribute_measured = "RP-LC retention time"
meas_value = 878

[[record]]
molecule = "Cc1ccc(Nc2c(-c3ccc(O)cc3)nc3ccc(C)cn23)cc1"
attribute_measured = "RP-LC retention time"
meas_value = 721


Task: Can you share its RP-LC retention time? I mean this molecule: Cc1ccc(NC(=O)C2CCCN2S(=O)(=O)c2cc3c(cc2Cl)NC(=O)CO3)cc1F (stereo not given)
Result: 844

Task: Look up RP-LC retention time: CCC1CCCCN1CCCNC(=O)C1=C(C)C(=O)OC12CCN(C(C)=O)CC2 (stereo not given)
Result: 565

Task: Entry CC(=O)Nc1nsc(N2CCC(C(=O)NCc3ccc(F)cc3Cl)CC2)n1 has what RP-LC retention time?
Result: 863

Task: What value of RP-LC retention time has been recorded for this entry: NC(=O)Cn1cnc2nc(N3CCC(C(=O)NC4CC4)CC3)sc2c1=O
Result: 566

Task: Fill blank: measured RP-LC retention time of the molecule CC(C)Cn1cc(S(=O)(=O)Nc2cc(F)cc(F)c2)c2cccnc21 is ____.
Result: 994

Task: Name the recorded RP-LC retention time for Cc1nnc2ccc(S(=O)(=O)N(Cc3ccc(F)cc3)c3ccc(F)cc3)cn12 .
Result: 892

Task: Reported RP-LC retention time for COc1cccc(-n2cc(C(=O)OCc3ccncc3)c3ccccc3c2=O)c1 : what is it?
Result: 714

Task: Find the recorded RP-LC retention time belonging to CCOC(=O)C1=C(CN2CCN(Cc3ccc4c(c3)OCO4)CC2)NC(=O)NC1c1ccc(F)cc1 (stereo not given) and report it.
Result: 675

Task: Item under review: CCCc1cc(N2CCN(C(=O)c3ccc(C#N)cc3)CC2)nc2nnc(C)n12 . Reported RP-LC retention time?
Result: 610

Task: // returns reported RP-LC retention time for input C=CCN1C(=O)COc2ccc(-c3nc(NC(=O)C(F)(F)F)sc3C)cc21
Result: 932

Task: Which RP-LC retention time reading was recorded for the molecule CC(C)NC(=O)Nc1cccnc1N1CCOCC1 ?
Result: 863

Task: Recorded RP-LC retention time for CC(C(=O)N1CCN(C)CC1)n1c2ccccc2c2cnn(C)c(=O)c21 (stereo not given) , please?
Result: 612

Task: # get_value(readout='RP-LC retention time', item= Cc1c(C(=O)N2CC(C)CC(C)C2)sc2ncn(CC(=O)N3CCC(C)CC3)c(=O)c12 (stereo not given) )
Result: 891

Task: Which measured RP-LC retention time value corresponds to CCOc1ccc(-c2cn3ccn(-c4ccc(C)c(C)c4)c(=O)c3n2)cc1 ?
Result: 949

Task: Could you share which RP-LC retention time value was measured for COc1cccc(-c2cn3ccn(-c4ccc(OC)c(Cl)c4)c(=O)c3n2)c1 ?
Result: 850

Task: Given the entry COc1cccc(C(=O)N(CN2CCCC2=O)c2cccc(C(F)(F)F)c2)c1 , report its measured RP-LC retention time.
Result: 757

Task: Name the reported RP-LC retention time value associated with the molecule OC(COc1ccccc1)CN1CCN(c2ccccc2)CC1 (stereo not given)
Result: 724

====

- Protocol Description: gradient 5% acetonitrile 3 min, to 50% in 2 min, to 85% in 15 min, held 3 min, 100 µL/min
- Condition Details: column: Zorbax Extend-C18 2.1 x 50 mm; eluents: water / acetonitrile, 0.1% formic acid
Attribute Measured: RP-LC retention time (s)
Reply numerically in s, unit not repeated.

Take a look at these entries with their results.
[[record]]
compound = "O=C(Cn1ccc2sccc2c1=O)NCc1ccc(F)cc1"
unit_label = "s"
meas_value = 694

[[record]]
compound = "Cc1ccn2c(Nc3ccc4c(c3)OCCO4)c(-c3cccc(Cl)c3)nc2c1"
unit_label = "s"
meas_value = 727

[[record]]
compound = "Cc1ccc(-c2noc(C3CCCN3S(=O)(=O)c3ccc4c(c3)CCCC4)n2)cc1 (stereo not drawn)"
unit_label = "s"
meas_value = 1350


Task: Need RP-LC retention time, item CCOc1ccc(NC(=O)c2cc3oc(C)cc3n2Cc2ccc(C)cc2)cc1
Result: 1210

Task: Please give the measured RP-LC retention time for this compound: CC(C)CC(=O)N1CCc2[nH]nc(C(=O)NCCCc3ccccc3)c2C1
Result: 795

Task: Recorded RP-LC retention time of COCCCNC(=O)C1(C)Cn2nc(-c3ccccc3)cc2C(=O)N1c1ccccc1F (stereo not drawn) , please.
Result: 830

Task: Could you share which RP-LC retention time value was measured for CC(NC(=O)c1ccc(OC(F)(F)F)cc1)C(=O)N1CCN(c2ccccn2)CC1 (stereo not drawn) ?
Result: 643

Task: // query RP-LC retention time value for entry Cc1cccc(N(C)C(=O)Cn2c(N3CCc4ccccc4C3)nc(C)cc2=O)c1
Result: 850

Task: Query (compound): Cc1nc(-c2csc(S(=O)(=O)N3CCCC(C(=O)Nc4ccc(C#N)cc4)C3)c2)no1 (stereo not drawn) ; field requested: RP-LC retention time
Result: 935

====

- Protocol Description: gradient 5% acetonitrile 3 min, to 50% in 2 min, to 85% in 15 min, held 3 min, 100 µL/min
- Condition Details: column: Zorbax Extend-C18 2.1 x 50 mm; eluents: water / acetonitrile, 0.1% formic acid
Attribute Measured: RP-LC retention time (s)
Number only, in s; omit the unit.

As a guide, the following entries are already answered.
[[record]]
compound = "c1ccc(CCc2nc3nccc(-c4ccncc4)n3n2)cc1"
attribute_measured = "RP-LC retention time"
meas_value = 713

[[record]]
compound = "Cc1ccc(Sc2nccnc2N2CCCC(C(=O)Nc3ccc(F)c(C)c3)C2)cc1 (configuration not stated)"
attribute_measured = "RP-LC retention time"
meas_value = 1230

[[record]]
compound = "Cc1cc(-c2nnc(-c3ccco3)o2)c(C)n1CC(=O)NCc1ccccc1"
attribute_measured = "RP-LC retention time"
meas_value = 826


Task: Need RP-LC retention time of COc1ccc(OC)c(S(=O)(=O)N2CCCC(C(=O)NCc3ccccc3)C2)c1 (configuration not stated) , thanks.
Result: 841

Task: Give its RP-LC retention time value. Item: CCn1nc(CNC(=O)C2CCCCC2)c2ccccc21
Result: 828

Task: Item C=CCNS(=O)(=O)CCNC(=O)c1ccccc1 has what recorded RP-LC retention time?
Result: 629

Task: # RP-LC retention time lookup, item CCOc1ccccc1NC(=O)CN1C(=O)C2CCCCN2c2ccc(S(=O)(=O)N(C)C)cc21 (configuration not stated)
Result: 887

Task: I would be grateful if you could share the reported RP-LC retention time for Fc1ccc(-c2ccc(CNCc3ccccn3)o2)cc1 .
Result: 655

Task: Request the reported RP-LC retention time associated with Cc1ccc(NC(=O)c2ccc(=O)n(CCN3CCOCC3)c2)cc1
Result: 611

Task: Requested read-out: RP-LC retention time. Entry: COc1ccc(C(=O)Nc2cc(-c3cccnc3)no2)cc1
Result: 721

Task: Need RP-LC retention time of O=C(NCCc1ccccn1)c1cccc(N2CCNC(c3ccccc3)C2)n1 (configuration not stated) , thanks.
Result: 554

Task: State the recorded RP-LC retention time for this entry: CCCN1CCN(CCCNC(=O)c2noc3c2CCCCC3)CC1
Result: 594

Task: Fill blank: measured RP-LC retention time of the compound Cc1ccc(NS(=O)(=O)c2cc(-c3nc(C(C)C)cs3)cs2)c(Br)c1 is ____.
Result: 1220

Task: Any idea what its RP-LC retention time is? The compound is CN(C)c1cc(OC2CCN(C(=O)c3c[nH]c4ccccc34)C2)ncn1 (configuration not stated)
Result: 604

Task: Need RP-LC retention time, item Cc1cccc(C2CCCN2C(=O)c2c(Br)cnn2C)c1 (configuration not stated)
Result: 908

Task: Suppose we examine the compound CCc1noc2cc(-c3ccccc3)n(C)c(=O)c12 ; what RP-LC retention time value has been reported?
Result: 950

Task: # input compound: NC(=O)C1CCN([C@H]2CS(=O)(=O)C[C@@H]2S(=O)(=O)c2ccc(F)cc2)CC1 ; wanted: its RP-LC retention time
Result: 629
